# MIC50 per entry
System: Staphylococcus aureus
PROCEDURE_SUMMARY: Antibacterial activity against methicillin-susceptible Staphylococcus aureus clinical isolate by broth microdilution method
Assay type: functional
Unit µg/mL implied. Number only.

[
  {
    "SMILES_DATA": "CC(=O)NC[C@H]1CN(c2ccc(N3CCOCC3)c(F)c2)C(=O)O1",
    "MIC50 / µg/mL": 2
  },
  {
    "SMILES_DATA": "CCCCCCCCCC(=O)N[C@@H](Cc1c[nH]c2ccccc12)C(=O)N[C@H](CC(N)=O)C(=O)N[C@@H](CC(=O)O)C(=O)N[C@@H]1C(=O)NCC(=O)N[C@@H](CCCN)C(=O)N[C@@H](CC(=O)O)C(=O)N[C@H](C)C(=O)N[C@@H](CC(=O)O)C(=O)NCC(=O)N[C@H](CO)C(=O)N[C@@H]([C@H](C)CC(=O)O)C(=O)N[C@@H](CC(=O)c2ccccc2N)C(=O)O[C@@H]1C",
    "MIC50 / µg/mL": 0.5
  },
  {
    "SMILES_DATA": "CN[C@H](CC(C)C)C(=O)N[C@H]1C(=O)N[C@@H](CC(N)=O)C(=O)N[C@H]2C(=O)N[C@H]3C(=O)N[C@H](C(=O)N[C@H](C(=O)O)c4cc(O)cc(O)c4-c4cc3ccc4O)[C@H](O)c3ccc(c(Cl)c3)Oc3cc2cc(c3O[C@@H]2O[C@H](CO)[C@@H](O)[C@H](O)[C@H]2O[C@H]2C[C@](C)(N)[C@H](O)[C@H](C)O2)Oc2ccc(cc2Cl)[C@H]1O",
    "MIC50 / µg/mL": 1
  }
]

Continue with the next molecule.
Query :: Which MIC50 value belongs to CCCCCCCCCCNCCN[C@@]1(C)C[C@H](O[C@H]2[C@H](Oc3c4cc5cc3Oc3ccc(cc3Cl)[C@@H](O)[C@@H](NC(=O)[C@@H](CC(C)C)NC)C(=O)N[C@@H](CC(N)=O)C(=O)N[C@H]5C(=O)N[C@H]3C(=O)N[C@H](C(=O)N[C@H](C(=O)O)c5cc(O)c(CNCP(=O)(O)O)c(O)c5-c5cc3ccc5O)[C@H](O)c3ccc(c(Cl)c3)O4)O[C@H](CO)[C@@H](O)[C@@H]2O)O[C@@H](C)[C@H]1O ?
Result :: 0.25
